Provenance of the data: patent US20240270821A1

TARGET_OR_SYSTEM: human glucagon receptor (human) (UniProt P47871)
Sequence (P47871 26-477): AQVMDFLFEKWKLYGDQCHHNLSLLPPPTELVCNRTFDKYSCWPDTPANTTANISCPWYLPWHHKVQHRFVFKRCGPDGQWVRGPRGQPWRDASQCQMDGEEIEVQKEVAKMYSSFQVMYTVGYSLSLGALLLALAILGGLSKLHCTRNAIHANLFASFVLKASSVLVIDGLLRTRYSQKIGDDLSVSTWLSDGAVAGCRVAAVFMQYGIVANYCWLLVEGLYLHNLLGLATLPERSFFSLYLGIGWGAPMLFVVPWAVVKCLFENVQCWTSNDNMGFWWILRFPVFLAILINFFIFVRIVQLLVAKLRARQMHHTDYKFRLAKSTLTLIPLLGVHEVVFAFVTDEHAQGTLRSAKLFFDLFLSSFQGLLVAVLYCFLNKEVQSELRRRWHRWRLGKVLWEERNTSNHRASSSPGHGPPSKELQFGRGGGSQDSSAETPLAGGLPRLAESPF
ASSAY_METHOD_TEXT: cell-based or functional assay
Starred links: 1 amine or outer side, 2 acyl side, 3 side chain; linkers in the order of their positions; H or OH if unused. Non-standard residues stand in square brackets, D forms with d. Groups on a side chain read outwards from the residue. No end group written: not given here. *: point of attachment. C18 diacid = O=C(O)CCCCCCCCCCCCCCCCC(=O)*; γGlu = O=C(O)[C@H](CCC(=O)[*:2])N[*:1]; αMeL = CC(C)C[C@](C)(N)C(=O)O; Dab = NCC[C@H](N)C(=O)O; AEEA = NCCOCCOCC(=O)O; Aib = CC(C)(N)C(=O)O
cAMP Rel EC50, nM (in the presence of 1% HSA) vs 900 nM: less than gives met; not less than gives not met.

BINDER	QUALITATIVE_LABEL
Y[Aib]QGTFTSDFS[Dab][αMeL]LDKK([AEEA-γGlu-C18 diacid])AQ[Aib]AFIEYLLE[Aib]GPSSGAPPPSGS-NH2 (ends and bridges not checked) [Example 133]	met
YXQGTFTSDFSKXLDKKAQXAFIEYLIEGGPSSGAPPPSEG (not fully specified; synthetic construct; SITE 2: note = 2-Aminoisobutyric Acid; SITE 13: note = alpha-methyl-leucine; SITE 17: note = Lysine is chemically modified through conjugation of the epsilon-amino group of the Lysine side chain with (2-[2-(2-Amino-ethoxy)-ethoxy]-acetyl)-(gamma-Glu)-CO-gamma -gamma-(CH2)16-CO2H) [Example 49]	not met
YXQGTFTSDXSXXLDKKAQXAFIEWLLEGGPSSGEPPPSGE (synthetic construct; SITE 2: note = 2-Aminoisobutyric Acid; SITE 10: note = 3-(4-Pyridyl)-L-alanine; SITE 12: note = L-ornithine; SITE 13: note = alpha-methyl-leucine; SITE 17: note = Lysine is chemically modified through conjugation of the epsilon-amino group of the Lysine side chain with (2-[2-(2-) [Example 115]	not met
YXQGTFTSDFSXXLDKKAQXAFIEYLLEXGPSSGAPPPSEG (synthetic construct; SITE 2: note = 2-Aminoisobutyric Acid; SITE 12: note = L-ornithine; SITE 13: note = alpha-methyl-leucine; SITE 17: note = Lysine is chemically modified through conjugation of the epsilon-amino group of the Lysine side chain with (2-[2-(2-Amino-ethoxy)-ethoxy]-acetyl)2-(gamma-Glu)) [Example 71]	not met
YXQGTFTSDFSXXLDKKAQXAFIEYLLEGGPSSGAPPPGGS (synthetic construct; SITE 2: note = 2-Aminoisobutyric Acid; SITE 12: note = L-ornithine; SITE 13: note = alpha-methyl-leucine; SITE 17: note = Lysine is chemically modified through conjugation of the epsilon-amino group of the Lysine side chain with (2-[2-(2-Amino-ethoxy)-ethoxy]-acetyl)-(gamma-Glu)) [Example 62]	met
YXQGTFTSDFSXXLDKKAQXAFIEYLLEAGPSSGEPPPSGE (synthetic construct; SITE 2: note = 2-Aminoisobutyric Acid; SITE 12: note = L-ornithine; SITE 13: note = alpha-methyl-leucine; SITE 17: note = Lysine is chemically modified through conjugation of the epsilon-amino group of the Lysine side chain with (2-[2-(2-Amino-ethoxy)-ethoxy]-acetyl)-(gamma-Glu)) [Example 135]	met
YXQGTFTSDFSXXLDKKAQXAFIEYLLEAGPSSGAPPPSEG (not fully specified; synthetic construct; SITE 2: note = 2-Aminoisobutyric Acid; SITE 12: note = L-ornithine; SITE 13: note = alpha-methyl-leucine; SITE 17: note = Lysine is chemically modified through conjugation of the epsilon-amino group of the Lysine side chain with (2-[2-(2-Amino-ethoxy)-ethoxy]-acetyl)2-(gamma-Glu)) [Example 72]	not met
